Molecular target: human MDR1 transfected MDCK cells (Homo sapiens, UniProt P08183)
Construct: host or cells: MDCK cells
Assay: MDR1-MDCK assay (efflux ratio)
Assay type: in vitro ADME
Conditions: 1 μM compound, 120 minutes incubation
Each entry below carries its recorded MDR1-MDCK Efflux Ratio; (B-A/A-B).
Quick one: just the number, no unit, thanks!

Here is how some compounds turned out for MDR1-MDCK Efflux Ratio; (B-A/A-B).
{"compound": "CC12CCC(n3cc4cc(C(=O)Nc5cnn6cccnc56)c(OC5CCC5)cc4n3)(CO1)C2 (single isomer, unassigned) [Example 138]", "MDR1-MDCK Efflux Ratio; (B-A/A-B)": 1.7}
{"compound": "Cc1ccn2ncc(NC(=O)c3cc4cn(C5CCCOC5)nc4nc3OC3CCC3)c2n1 (single isomer, unassigned) [Example 134]", "MDR1-MDCK Efflux Ratio; (B-A/A-B)": 2.1}
{"compound": "Cc1cnc2c(NC(=O)c3cc4cn(C5CCCOC5)nc4nc3OC3CCC3)cnn2c1 (single isomer, unassigned) [Example 132]", "MDR1-MDCK Efflux Ratio; (B-A/A-B)": 2.0}
{"compound": "COc1cnc2c(NC(=O)c3cc4cn([C@]56CC[C@](C)(C5)OC6)nc4cc3OC(C)C)cnn2c1 (single isomer, unassigned) [Example 136]", "MDR1-MDCK Efflux Ratio; (B-A/A-B)": 2.3}

For the compound COc1cnc2c(NC(=O)c3cc4cn([C@@]56CC[C@@](C)(C5)OC6)nc4cc3OC(C)C)cnn2c1 (single isomer, unassigned) [Example 135] , what MDR1-MDCK Efflux Ratio; (B-A/A-B) is on record?
2.3

====

Target: MDR1 (P-gp) (Homo sapiens)
Construct: host or cells: MDCK cells
Sequence (P08183 whole entry): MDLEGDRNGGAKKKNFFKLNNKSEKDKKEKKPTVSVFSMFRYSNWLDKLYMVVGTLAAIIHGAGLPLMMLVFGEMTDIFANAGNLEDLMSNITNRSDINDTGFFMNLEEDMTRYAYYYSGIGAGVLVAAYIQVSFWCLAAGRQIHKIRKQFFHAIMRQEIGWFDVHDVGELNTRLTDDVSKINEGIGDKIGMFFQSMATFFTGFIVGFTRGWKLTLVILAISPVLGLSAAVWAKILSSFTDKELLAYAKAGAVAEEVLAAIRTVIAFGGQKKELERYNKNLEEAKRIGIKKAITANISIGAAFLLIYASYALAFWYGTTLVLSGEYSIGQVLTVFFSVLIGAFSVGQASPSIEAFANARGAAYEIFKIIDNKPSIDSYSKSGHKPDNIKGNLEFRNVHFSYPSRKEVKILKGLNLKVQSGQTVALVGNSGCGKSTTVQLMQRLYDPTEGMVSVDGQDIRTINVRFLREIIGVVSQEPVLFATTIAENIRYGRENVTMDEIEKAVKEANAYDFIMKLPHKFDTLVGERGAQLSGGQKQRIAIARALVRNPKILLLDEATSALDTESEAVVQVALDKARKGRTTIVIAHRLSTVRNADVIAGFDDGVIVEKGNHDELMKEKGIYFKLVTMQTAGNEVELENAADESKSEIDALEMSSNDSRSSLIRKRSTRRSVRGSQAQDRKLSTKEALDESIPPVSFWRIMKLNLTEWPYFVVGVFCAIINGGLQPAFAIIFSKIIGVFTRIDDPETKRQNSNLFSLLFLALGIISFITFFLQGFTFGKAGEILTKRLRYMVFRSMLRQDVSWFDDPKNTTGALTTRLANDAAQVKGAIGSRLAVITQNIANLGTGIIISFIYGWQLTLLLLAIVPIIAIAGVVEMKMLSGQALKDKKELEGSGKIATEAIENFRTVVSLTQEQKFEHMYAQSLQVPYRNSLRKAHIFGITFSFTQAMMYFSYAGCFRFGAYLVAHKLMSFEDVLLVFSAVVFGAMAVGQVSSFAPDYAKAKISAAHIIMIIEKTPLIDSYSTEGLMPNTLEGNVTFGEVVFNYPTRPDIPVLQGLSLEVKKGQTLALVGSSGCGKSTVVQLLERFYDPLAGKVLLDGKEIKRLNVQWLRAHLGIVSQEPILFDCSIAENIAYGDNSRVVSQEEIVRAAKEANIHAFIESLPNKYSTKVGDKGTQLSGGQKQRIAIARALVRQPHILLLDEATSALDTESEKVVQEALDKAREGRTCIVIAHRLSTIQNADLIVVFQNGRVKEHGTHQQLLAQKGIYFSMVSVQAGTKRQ
Test: MDR1-MDCK assay (efflux ratio)
Format: in vitro ADME
Settings: human, MDCK-MDR1, 1 μM compound, 120 minutes incubation; read-out: MDR1-MDCK Efflux Ratio; (B-A/A-B)
Structures can show the parent of a compound that is named as a salt.
parameter: efflux ratio at 120 min, 1 μM
Answer with the value's number alone.

Consider the following illustrative entries.
{"molecule": "CC(C)Oc1c(C(=O)Nc2cccc(C(F)F)n2)cc2cn(C3CCOCC3)nc2c1Cl [Example 124, Trifluoroacetate]", "reported_value": 1.1}
{"molecule": "COc1cccc(NC(=O)c2cc(OC)c3nn(C4CCOCC4)cc3c2)n1.Cl", "reported_value": 3}
{"molecule": "COc1cc2nn(C3CCOCC3)cc2cc1C(=O)Nc1ccccn1.O=C(O)C(F)(F)F", "reported_value": 1.1}
{"molecule": "COc1cc2nn(CC3CCOC3)cc2cc1C(=O)Nc1ccccn1.O=C(O)C(F)(F)F (centres unmarked)", "reported_value": 1.7}
{"molecule": "CC(C)Oc1cc2nn(C34COC(C)(C3)C4)cc2cc1C(=O)Nc1cnn2cc(Cl)cnc12", "reported_value": 0.9}

Which efflux ratio at 120 min, 1 μM value is on record for "COc1cccc(NC(=O)c2cc3cn(CC45COC(C)(C4)C5)nc3cc2OC)n1.O=C(O)C(F)(F)F" ?
0.9

May I ask what efflux ratio at 120 min, 1 μM has been recorded for "COc1cccc(NC(=O)c2cc3cn(C4CCOCC4)nc3cc2OC(C)C)n1" ?
0.9

What value of efflux ratio at 120 min, 1 μM has been recorded for this entry: "COC(C)(C)CCn1cc2cc(C(=O)Nc3cccc(C(F)F)n3)c(OC(C)C)cc2n1.Cl"
0.8

# get_value(readout='efflux ratio at 120 min, 1 μM', item= "COc1cc2nn(C3CCOCC3)cc2cc1C(=O)Nc1cccc(C(F)F)n1.Cl" )
0.7

So what does the record say about efflux ratio at 120 min, 1 μM for "CC(C)Oc1nc2nn(C3CCOCC3)cc2cc1C(=O)Nc1cnn2cccnc12" ?
2.6
